This collection of values is drawn from patent US20240092897A1.

Target: T1, Human Siglec-15, His Tag (human Siglec-15 full-length extracellular domain linked with His tag) (human, UniProt Q6ZMC9 20-263)
T1 construct: Bought from ACROBiosystems; also called Siglec-15 protein; SG5-H52H3
T1 sequence: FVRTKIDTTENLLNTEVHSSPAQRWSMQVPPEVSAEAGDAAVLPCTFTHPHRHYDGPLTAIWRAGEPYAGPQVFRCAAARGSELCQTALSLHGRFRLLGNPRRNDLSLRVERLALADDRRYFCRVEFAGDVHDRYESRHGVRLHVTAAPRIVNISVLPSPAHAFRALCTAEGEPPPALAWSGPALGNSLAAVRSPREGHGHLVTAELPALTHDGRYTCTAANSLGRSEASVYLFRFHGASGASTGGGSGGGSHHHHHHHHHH
Assay: SPR Biacore 8K, antibody captured by anti-human Fc, Siglec-15 His as analyte
// values below are reported koff
The answer is to be given in s⁻¹; state only the numeric part.

Examples from the recorded data:
binder="75E1F2 chimeric antibody (antibody, V domains shown, Mouse variable regions combined with human IgG1 (N297A) constant regions) VH: EVQLVESGGGSVKPGGSLKLSCAASGFTFSDYGMHWVRQAPEKGLEWITYISSGSSIIDYSDTVKGRFTISRDNAKDTLFLQMTSLRSEDTAIYYCVRREDHYAMDYWGQGTSVTVSS VL: DIVMTQSHKFLSTSVGDRVSITCKASQDVYTAVAWFQQKPGQSPKLLFYSASYRFTGVPDRFNGSGSGTDFTLTITSMQAEDLAVYYCQQHYSTPWTFGGGTKLEIK" quantitative_result=0.000782
binder="255C12B10 chimeric antibody (antibody, V domains shown, Mouse variable regions combined with human IgG1 (N297A) constant regions) VH: EVQLQQSGPELVKPGASVKMSCKASGYTFTGYNMNWVKQSHGKSLEWIGYINPNNGGTRYNQKFKGKATLTINKSSSTAYMELRSLTSEDSAVYYCARDYGIDYWGQGTTLTVSS VL: EIQMTQSPSSMSASLGDRITITCQATQDIVKNLNWYQQKPGKPPSFLIYYATELAEGVPSRFSGSGSGSDYSLTISNLESEDFADYYCLQFYEFPYTFGGGTKLEIK" quantitative_result=0.000158
binder="174C11C9 chimeric antibody (antibody, human IgG1, V domains shown, also called 174C11C9-mHL) VH: EVQLQQSGPVLVKPGASVKMSCEASGYIFTDYYMNWVKQSPGKSLEWIGVFNPYSGGISYNQKFKGKATLTVDTSSSTAYMELNSLTSEDSAVYYCARDYYYLSSHGFYALDYWGQGTSVTVSS VL: DIVLTQSPASLAVSLGQRATISCRASESVDSYGNSFIHWYQQRPGRPPKLLMYRASNLESGIPARFSGSGSRTDFTLTIDPVEADDVATYYCQQSNEDPLTFGAGTKLELK" quantitative_result=0.00037
binder="21F6C6 chimeric antibody (antibody, human IgG1, V domains shown, also called 21F6C6-mHL) VH: EVMLVESGGGLVKPGGSLKLSCAASGFTFSSYAMSWVRQSPEKRLEWVATISSGGSLIYYPDSVTGRFTISRDNAKSTLYLQMSSLRSEDTAMYYCVRHGYYYGDSTLYYAMDYWGPGTSVTVSS VL: DIVLTQSPASLAVSLGQRATISCKASQSVDYDGDSYMNWYQQKPGQPPKLLIYAASNLESGIPARFSGSGSGTDFTLNIHPVEEEDAATYYCQQSNEAPLTFGAGTKLELK" quantitative_result=0.000187

Next binder, please.
Noted for 124B11F6 chimeric antibody (antibody, human IgG1, V domains shown, also called 124B11F6-mHL) VH: EVQLQQSGAELVRPGASVKLSCTASVFNIKDYYMHWVKQRTEQGLEWIGRIDPEDDKTKYAPKFQGKATITADTSSNTAYLHLSTLTSEDTAVYYCVRGWLGYIMDFWGQGTSVTVSS VL: QLVLTQSSSASFSLGASAKLTCTLSSQHSTYTIDWYQQQPLKPPKYVMELKEDGSHSTGDGIPDRFSGSSSGADRYLGISNIQPEDEAVYICGVGATIKEQFVYVFGGGTKVTVL : its koff reads 1.46e-07
